- System Under Test: Progesterone receptor (Homo sapiens) (UniProt P06401)
- Sequence (P06401 whole entry, looked up): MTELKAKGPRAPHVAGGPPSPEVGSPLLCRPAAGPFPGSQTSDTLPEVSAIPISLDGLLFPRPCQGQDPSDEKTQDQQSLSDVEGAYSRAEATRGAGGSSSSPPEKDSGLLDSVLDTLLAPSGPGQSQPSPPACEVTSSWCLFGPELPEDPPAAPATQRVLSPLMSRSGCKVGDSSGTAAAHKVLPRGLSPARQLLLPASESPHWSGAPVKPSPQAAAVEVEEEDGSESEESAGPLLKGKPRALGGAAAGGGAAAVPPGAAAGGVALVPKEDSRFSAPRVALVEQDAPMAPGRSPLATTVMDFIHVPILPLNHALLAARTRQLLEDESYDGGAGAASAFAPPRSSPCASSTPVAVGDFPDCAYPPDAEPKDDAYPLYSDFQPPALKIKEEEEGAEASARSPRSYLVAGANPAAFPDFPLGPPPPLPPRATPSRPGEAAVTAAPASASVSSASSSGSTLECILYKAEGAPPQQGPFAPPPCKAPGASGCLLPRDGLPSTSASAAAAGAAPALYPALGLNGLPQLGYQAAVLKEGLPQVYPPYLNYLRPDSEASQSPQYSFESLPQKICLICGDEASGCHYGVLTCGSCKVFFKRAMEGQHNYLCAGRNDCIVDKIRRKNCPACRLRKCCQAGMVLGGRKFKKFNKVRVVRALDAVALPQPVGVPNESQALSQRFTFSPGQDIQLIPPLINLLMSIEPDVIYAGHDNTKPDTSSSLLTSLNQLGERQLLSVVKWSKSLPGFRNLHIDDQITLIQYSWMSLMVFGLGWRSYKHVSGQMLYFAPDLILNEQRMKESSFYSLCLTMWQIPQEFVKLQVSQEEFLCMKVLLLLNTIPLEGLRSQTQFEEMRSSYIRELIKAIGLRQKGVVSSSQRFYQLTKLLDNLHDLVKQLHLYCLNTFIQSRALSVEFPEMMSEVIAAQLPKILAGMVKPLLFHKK
- Assay Procedure: qHTS assay to identify small molecule antagonists of the progesterone receptor (PR) signaling pathway (AID 1346795)
- Settings: PR-UAS-bla HEK293T, beta-lactamase FRET ratio, 16 h; series mostly up to 92.4 µM
Results filed as inconclusive are left out. Calls of active or inactive are those of the source. Calls follow the shape of the dose curve; as a rule, active = well fitted inhibition curve with a large enough effect in the signal ratio in the repeat runs (not every such curve was filed as active); inconclusive = weak or mixed curves; inactive = flat fitted curve, though single readings scatter; the % refers to the signal ratio.
Write down the outcome that applies. Available outcomes: true for active, false for inactive

Compound | System Under Test | Assigned Category
CC(=O)O[C@@H]1C[C@@H]2CC[C@@]1(C)C2(C)C | Progesterone receptor (Homo sapiens) (UniProt P06401) | false
CC(C)(c1cc(Br)c(OCCO)c(Br)c1)c1cc(Br)c(OCCO)c(Br)c1 | Progesterone receptor (Homo sapiens) (UniProt P06401) | true
O[C@@H](c1cc(C(F)(F)F)nc2c(C(F)(F)F)cccc12)[C@H]1CCCCN1 | Progesterone receptor (Homo sapiens) (UniProt P06401) | true
CC1=CP(=O)(c2ccccc2)CC1 (configuration not stated) | Progesterone receptor (Homo sapiens) (UniProt P06401) | false
NC(=O)c1ccccc1N | Progesterone receptor (Homo sapiens) (UniProt P06401) | false
Nc1ncnc2c1ncn2[C@@H]1O[C@H](COP(=O)(O)O)[C@@H](O)[C@H]1O | Progesterone receptor (Homo sapiens) (UniProt P06401) | false
O=C1c2c(O)ccc(O)c2C(=O)c2c(NCCNCCO)ccc(NCCNCCO)c21 | Progesterone receptor (Homo sapiens) (UniProt P06401) | true
CC(C)=C1CC[C@@H](C)CC1=O | Progesterone receptor (Homo sapiens) (UniProt P06401) | false

Q: Test call for this compound, please: "CCCCCCCC/C=C\CCCCCCCC(=O)N(C)CC(=O)O"
A: true

Q: Answer briefly: the call reported for "CC1(C)COCN1" in this assay.
A: false

Q: Recorded call for CCC(C)C(=O)OC (configuration not stated) ?
A: false

Q: Entry "CCCCCCCCCCCCCc1ccccc1" : call = ?
A: false

Q: Test call for this compound, please: CCCCN(CCCC)CCC(O)c1cc2c(Cl)cc(Cl)cc2c2cc(C(F)(F)F)ccc12 (configuration not stated)
A: false

Q: Check the results log: what was the call for "COc1ccc2sc(C(=O)Nc3nnn[nH]3)c(OC(C)C)c2c1" ?
A: true

====

- Assay Procedure: qHTS assay for small molecule disruptors of the mitochondrial membrane potential (AID 720635); also: potency is read from the fitted curve at half-maximal effect
- Settings: HepG2 mitochondrial membrane potential, Mito-MPS dye ratio; series mostly up to 83.2 µM
Results filed as inconclusive are left out. Activity calls are given as the source filed them. The call rests on the fitted dose curve; in most records, active means well fitted inhibition curve with a large enough effect in the signal ratio in the repeat runs; inconclusive means weak or mixed curves, or effect the other way; inactive means flat fitted curve, though single readings scatter; the % refers to the signal ratio.
Measurement Type: Potency

Consider the reported Potency for these molecules:
Molecule | Potency
COC(=O)[C@]1(C)CCC[C@@]2(C)[C@H]1CC=C1C=C(C(C)C)CC[C@@H]12 | 54.5 µM (active)
[O]=[Zr] | inactive
CC(C)(C)c1cc(/C=C2\SC(=N)NC2=O)cc(C(C)(C)C)c1O | 12.2 µM (active)
CCCCCCC(C)OC(=O)COc1nc(F)c(Cl)c(N)c1Cl (configuration not stated) | 61.1 µM (active)
O=C(O)Cc1ccc(OCCNC[C@H](O)c2ccccc2)cc1 | inactive
O=C(Oc1ccccc1)c1cccc(C(=O)Oc2ccccc2)c1 | 32.3 µM (active)

Sure, the documented Potency for "CC(C)=C1CC[C@@H](C)CC1=O" is inactive

Value of measured Potency for the entry "CC(C)(C)CC(C)(C)c1ccccc1O" : 2.18 µM (active)

The reported Potency of the molecule C[n+]1c2cc(N)ccc2cc2ccc(N)cc21 (tested in a mixture with another compound) was 0.668 µM (active)

Item: O=C1OC(OC(=O)c2cccnc2Nc2cccc(C(F)(F)F)c2)c2ccccc21 (configuration not stated) | Potency: 24.8 µM (active)

Given item CN1[C@@H]2CC[C@H]1CC(OC(=O)C(CO)c1ccccc1)C2 (some centres not stated) , the value recorded as its Potency is inactive

// Potency value for "CCCN(CCc1cccs1)[C@H]1CCc2c(O)cccc2C1" : 24.8 µM (active)
